The reported measurements were obtained from patent US20250345392A1.

assay: 14-day repeat IV dose toxicity study with toxicokinetic evaluation on Day 1 and 14 in dogs; assay type: in vivo, beagle dogs; settings: dog, in vivo, iv, 3 mg/kg/day, IV 3.0 mg/kg/day, male, Day 14, read-out: Cl
Ends that are not written are not given here.
parameter: clearance (mL/min/kg)

# substance, unit.name, value.measured
measured = [
    ("AMVSEFLKQAWFIENEEQEYVQTLKSSKGGPGSAVSPYPTFNPSSDV-NH2 [Peptide 1]", "mL/min/kg", 27.4),
]

---

experiment: Clinical test in humans, single 30-min i.v. infusion, plasma PK; assay type: in vivo; conditions: human, in vivo, iv, 200 ug/kg, single 30-min i.v. infusion 200 μg/kg, GM, read-out: t1/2 (converted)
Ends that are not written are not given here.
parameter: half-life (h)

# substance, value.measured
measured = [
    ("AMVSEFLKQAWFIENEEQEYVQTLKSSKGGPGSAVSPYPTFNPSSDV-NH2 [Peptide 1]", 1.44),
]
